- Tested on: SNB-78
- PROTOCOL SUMMARY: NCI tumour cell line growth inhibition, 48 h
Active and inactive are the calls of the source. No stated cut-off is given here; in the data, active = GI50 up to about 1.1 µM and inactive = higher.
VALUE KIND: GI50

> print(dat)
                                   molecule              reading
1  O=C(CC1(O)C(=O)Nc2ccc(Br)cc21)c1ccc(Cl)cc1 (configuration not stated)   83.8 µM (inactive)
2  O=C1/C(=C/c2cc(O)c(O)c(O)c2)Oc2cc(O)cc(OC3OC(CO)C(O)C(O)C3O)c21 (configuration not stated)   19.4 µM (inactive)
3            COc1ccc2nc(-c3ccc(O)cc3)ccc2c1   97.1 µM (inactive)
4         O=C(O)CCC(=O)Oc1ccc(O)c2c1CCCC2=O  > 100 µM (inactive)
5          N#C/C(=C\c1cccc(Cl)c1Cl)c1ccccc1   50.2 µM (inactive)
6       O=[PH](O)c1cc2c3ccccc3ccc2c2ccccc12  > 100 µM (inactive)
7  CC/C(C)=C1\CCC(CN(C)C)C1=O (configuration not stated)   24.8 µM (inactive)

====

The following compounds are shown together with reported GI50 values.
- Tested on: PC-3
- PROTOCOL SUMMARY: NCI tumour cell line growth inhibition, 48 h
Calls of active or inactive are those of the source. Rule as the data show it: active = GI50 up to about 1.1 µM and inactive = higher. Square brackets hold non-standard residues; d marks the D form. Peptide text beside a SMILES is read from it. * marks the point of attachment. Phe(4-NO2) = N[CH](Cc1ccc([N+](=O)[O-])cc1)C(=O)O; Cbz = O=C(OCc1ccccc1)*

COMPOUND	GI50
Cc1nc2ccccc2c(=O)n1NC(=O)c1ccccc1O	> 100 µM (inactive)
O=C(/C=C/c1ccc(OCc2ccccc2)cc1)NCc1ccc(C(=O)NCCc2c[nH]c3ccccc23)cc1	12 µM (inactive)
CSc1n[nH]c2c1c(C)nn2-c1ccccc1	> 100 µM (inactive)
CCOC(=O)[C@H]1C[C@@H](C(=O)c2ccccc2)N2N=C(c3ccc(Br)cc3)C=C[C@H]12	> 100 µM (inactive)
CC1(C)C2CCC1(CC(=O)O)C(Cl)C2 (stereo not drawn)	> 100 µM (inactive)
O=S(=O)(c1ccccc1)c1ccc(/N=N/O)nc1	> 100 µM (inactive)
CCOC(=O)CCC(NC(=O)OCc1ccccc1)C(=O)NC(CCC(=O)OCC)C(=O)NC(CCC(=O)OCC)C(=O)NC(CCC(=O)OCC)C(=O)NC(CCC(=O)OCC)C(=O)NC(Cc1ccc([N+](=O)[O-])cc1)C(=O)NC(CCC(=O)OCC)C(=O)NC(CCC(=O)OCC)C(=O)NC(CCC(=O)OCC)C(=O)NC(CCC(=O)OCC)C(=O)NC(CCC(=O)OCC)C(=O)OCC (stereo not drawn) (Cbz-E(OEt)E(OEt)E(OEt)E(OEt)E(OEt)[Phe(4-NO2)]E(OEt)E(OEt)E(OEt)E(OEt)E(OEt)-OEt; configuration not given here)	> 50 µM (inactive)
Fc1cccc(Cl)c1/C=N\N=C1c2ccccc2-c2ccccc21	97.9 µM (inactive)
O=C(C1OC1c1ccc(F)cc1)C12CC3CC(CC(C3)C1)C2 (stereo not drawn)	30.7 µM (inactive)
O=c1cc(/N=N\c2ccc(Cl)c(Cl)c2)[nH]c(=O)[nH]1	5.74 µM (inactive)
O=S(=O)(O)n1ccnc1	> 100 µM (inactive)
COc1ccc(C(C#N)NC23CC4CC(CC(C4)C2)C3)cc1 (stereo not drawn)	> 100 µM (inactive)
COC(=O)C(Cc1ccc2c(c1)CCC2)Cc1ccc2c(c1)CCC2	73.3 µM (inactive)

====

The following molecules are shown together with reported GI50 values.
- System: NCI-H522
- PROTOCOL SUMMARY: NCI tumour cell line growth inhibition, 48 h
Activity calls are given as the source filed them. Cut-off read from the data, not from the text of the source: active = GI50 up to about 1.1 µM and inactive = higher.
VALUE KIND: GI50

> print(dat)
                                   molecule              reading
1  CC(=O)Nc1ccc(-c2cc(C(=O)O)c3cc4ccccc4cc3n2)cc1  > 100 µM (inactive)
2     O=[N+]([O-])c1ccc(NC(=S)Nc2ccccn2)cc1   31.8 µM (inactive)
3  COc1ccc(N2C(=O)C3c4[nH]c5cccc(Cl)c5c4C4CCC(C(C)(C)C)CC4C3C2=O)cc1 (stereo not given)  > 100 µM (inactive)
4  CCOC(=O)N1CCN(P(=O)(Nc2ccc3[nH]c(NC(=O)OC)nc3c2)Oc2ccccc2)CC1 (stereo not given)   37.5 µM (inactive)
5  COc1cc2c(c3oc4c(O)cccc4c(=O)c13)CC(C(C)(O)CCl)O2 (stereo not given)   1.73 µM (inactive)

====

- Tested on: NCI-H23
- PROTOCOL SUMMARY: NCI tumour cell line growth inhibition, 48 h
Activity calls are given as the source filed them. Rule as the data show it: active = GI50 up to about 1.1 µM and inactive = higher.
VALUE KIND: GI50

> print(dat)
                                    compound              reading
 1  COc1ccc(/C(Nc2ccccc2)=C(\CCl)c2ccccc2)cc1OC   45.9 µM (inactive)
 2  COc1ccc(NC(=O)CC(=O)N2N=C(N3c4ccccc4Sc4ccccc43)CC2c2ccccc2)cc1 (stereo not given)  > 100 µM (inactive)
 3  COc1ccc(C(C#N)NC23CC4CC(CC(C4)C2)C3)cc1 (stereo not given)  > 100 µM (inactive)
 4  C[n+]1c(-c2ccc(/C=N\N3CCN(/N=C/c4ccc(-c5cn6ccsc6[n+]5C)cc4)CC3)cc2)cn2ccsc21   30.1 µM (inactive)
 5  CC1CCOc2ccc(cc2)/C=N\c2ccc(cc2)-c2ccc(cc2)/N=C\c2ccc(cc2)OCC1  > 100 µM (inactive)
 6  COC(=O)c1cc(-c2cccn2C)c2c(c1C(=O)OC)c1ccccc1n2C   85.7 µM (inactive)
 7  Cc1ccc(NC(=O)CCC/C(CC(=O)c2ccc(Br)cc2)=N/NC(=O)CC#N)cc1  > 100 µM (inactive)
 8       CC1(C)CC(=O)C(C(=O)Nc2cccs2)=C(O)C1     30 µM (inactive)
 9  O=C(Oc1ccc2c(c1)CN(Cc1ccccc1)CO2)c1ccccc1   15.8 µM (inactive)
10   Cc1[nH]c(=O)c2oc3cc4ccccc4cc3c2c1C(=O)O   > 10 µM (inactive)

====

- Tested on: IGROV-1
- PROTOCOL SUMMARY: NCI tumour cell line growth inhibition, 48 h
The source made the active and inactive calls. Cut-off read from the data, not from the text of the source: active = GI50 up to about 1.1 µM and inactive = higher.
Outcome codes: 1.0 (active), 0.0 (inactive)

MOLECULE	CATEGORY LABEL
Cc1ccc(S(=O)(=O)NC2C(=O)c3ccccc3C(=O)C2n2ccnc2)cc1 (stereo not given)	0.0
C[n+]1cc(C(O)c2ccc3c(c2)OCO3)c2ccccc2c1 (stereo not given)	0.0
O=C(Oc1ccc2c(c1)CN(Cc1ccccc1)CO2)c1ccccc1	0.0
O=C1NC(Cc2ccc(O)cc2)C(=O)N2CCCC12 (stereo not given)	0.0
C=C(C)C1CCC2(C)C1CCC1(C)C2CCC2C3(C)C4OC(OC4=O)C(C)(C)C3CCC21C (stereo not given)	0.0
NC(=O)CCC(NC(=O)c1c2ccccc2nc2ccccc12)C(=O)O (stereo not given)	0.0
NC(=O)Cn1c(=O)[nH]c(=O)c2[nH]cnc21	0.0
O=c1[nH]c2cc3cccnc3c(Cl)c2nc1C(F)(F)F	0.0
CO[C@@H]1C[C@H](OC(N)=O)[C@@H]2C=C[C@@H]3/C=C(C)/C=C/[C@@H](C)[C@H]([C@H](C)[C@H](O)[C@@H](C)NC(C)=O)OC(=O)/C=C/C=C(C)\C=C\[C@]3(C)[C@@H]2C1	1.0
Cc1cn(C2CC(N)C(C(=O)NCC(=O)O)O2)c(=O)[nH]c1=O (stereo not given)	0.0
Cc1nnc([C@@]2(C)CC[C@H]3[C@@H](CCC4=CC(=O)CC[C@@]43C)[C@@H]2CC#N)o1	0.0
CCCc1cc(OC(=O)c2c(O)cc(OC)cc2CCC)cc(O)c1C(=O)O	0.0
COc1cc(OC)c(OC)cc1/C=C/c1ccccn1	0.0
O=CC(O)C(O)C(O)C(O)C(=O)NCCCCCCCCCCCCNC(=O)C(O)C(O)C(O)C(O)C=O (stereo not given)	0.0
COC(=O)C(CCS(=O)(=O)CC(=O)C(=O)Nc1cccc(C(C)=O)c1)C(=O)OC	0.0
COc1ccc(NC(=O)CC(=O)N2N=C(N3c4ccccc4Sc4ccccc43)CC2c2ccccc2)cc1 (stereo not given)	0.0
CCOc1ccccc1NC(=O)C(=O)Cc1nc2ccccc2s1	0.0
COc1c(O)c(OC)c(C(=O)/C=C/c2ccccc2)c(O)c1OC	0.0
CC1=C2C(=O)c3ccccc3C(=O)[C@H]2C[C@@H](N2CCCCCC2=O)O1	0.0
COC(=O)c1ccc(COC(=O)N2C=CCC2C(=O)O)cc1 (stereo not given)	0.0
